Ki by entry:
Experimental Target: isolated recombinant JAK2 kinase domain (Homo sapiens (Human))
Assay Comment: JAK2 enzyme assay (Caliper LabChip, Ki)
Condition Info: read-out: JAK2 Ki
The answer is to be given in nM; state only the numeric part.

Compound	Test Result
CC1Sc2cc(-c3nn(C)cc3NC(=O)c3cnn4cccnc34)c(OC(F)F)cc2NC1=O (single isomer, unassigned) [Example 97]	0.09

Query string: # lookup: Ki of CCn1cc(NC(=O)c2cnn3cccnc23)c(-c2cc3ccccc3cc2OC(F)F)n1
Result string: 0.42

Query string: # lookup: Ki of O=C(Nc1c[nH]nc1-c1cc2c(cc1OC(F)F)CCO2)c1cnn2cccnc12
Result string: 0.09

Query string: # lookup: Ki of CC1CNc2cc(OC(F)F)c(-c3n[nH]cc3NC(=O)c3cnn4cccnc34)cc2S1 (stereo not shown) [Example 94]
Result string: 0.05

Query string: # lookup: Ki of O=C(Nc1cn(C2CCOC2=O)nc1-c1cc2c(cc1OC(F)F)NCCS2)c1cnn2cccnc12 (single isomer, unassigned) [Example 141]
Result string: 0.09

Query string: # lookup: Ki of O=C(Nc1c[nH]nc1-c1cc2c(cc1OC(F)F)NCCO2)c1cnn2cccnc12
Result string: 0.08

====

Tested on: JAK1-dependent STAT6 phosphorylation in BEAS-2B human bronchial epithelial cells
Assay Comment: JAK1 pathway assay: IL-13 stimulated STAT6 phosphorylation in BEAS-2B cells
Type: cell-based
Condition Info: Homo sapiens, BEAS-2B, BEAS-2B cells, IL-13 stimulation; read-out: IL-13 p-STAT6 BEAS-2B IC50
Readout Name: pIC50
The read-out pIC50 is expressed as -log10 of concentration in moles per litre.

Molecular String	pIC50
O=C(Nc1cn(CC(=O)N2CCC(CN3CCOCC3)CC2)nc1-c1cc2sccc2cc1OC(F)F)c1cnn2cccnc12	7.89
COc1cc2cnsc2cc1-c1n[nH]cc1NC(=O)c1cnn2cccnc12	8.70

Query string: # lookup: pIC50 of Cn1nnnc1Cn1cc(NC(=O)c2cnn3cccnc23)c(-c2cc3c(cc2OC(F)F)NCCS3)n1
Result string: 7.85

Query string: # lookup: pIC50 of C[C@H]1COc2cc(-c3n[nH]cc3NC(=O)c3cnn4cccnc34)c(OC(F)F)cc2N1
Result string: 7.47

====

Experimental Target: isolated recombinant JAK1 kinase domain (Homo sapiens (Human), UniProt P23458)
Sequence (P23458 875-1153): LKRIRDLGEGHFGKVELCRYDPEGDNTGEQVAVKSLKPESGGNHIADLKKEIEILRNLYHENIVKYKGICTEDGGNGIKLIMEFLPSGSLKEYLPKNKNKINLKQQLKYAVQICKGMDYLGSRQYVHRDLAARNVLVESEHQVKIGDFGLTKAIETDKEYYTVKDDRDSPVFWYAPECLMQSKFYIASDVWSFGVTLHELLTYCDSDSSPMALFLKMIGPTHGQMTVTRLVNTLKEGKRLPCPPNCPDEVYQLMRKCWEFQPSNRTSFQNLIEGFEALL
Assay Comment: JAK1 enzyme assay (Caliper LabChip, Ki)
Type: biochemical
Ki by entry:
The answer is to be given in nM; state only the numeric part.

Molecular String	Experimental Target	Ki, nM
O=C(Nc1cn(CC(=O)N2CCC(N3CCOCC3)CC2)nc1-c1cc2c(cc1OC(F)F)NCCS2)c1cnn2cccnc12	isolated recombinant JAK1 kinase domain (Homo sapiens (Human), UniProt P23458)	0.19

Query string: What reported Ki corresponds to CC[C@@H](O)Cn1cc(NC(=O)c2cnn3cccnc23)c(-c2cc3c(cc2OC(F)F)NCCO3)n1 on isolated recombinant JAK1 kinase domain (Homo sapiens (Human), UniProt P23458)?
Result string: 0.41

Query string: What reported Ki corresponds to NC(=O)c1cc2cc(OC(F)F)c(-c3nn(CC(=O)N4CCC(=O)CC4)cc3NC(=O)c3cnn4cccnc34)cc2s1 on isolated recombinant JAK1 kinase domain (Homo sapiens (Human), UniProt P23458)?
Result string: 0.38

Query string: What reported Ki corresponds to CN1CCC[C@@H]1Cn1cc(NC(=O)c2cnn3cccnc23)c(-c2cc3c(cc2OC(F)F)NC(=O)CS3)n1 on isolated recombinant JAK1 kinase domain (Homo sapiens (Human), UniProt P23458)?
Result string: 0.2

====

System: JAK1-dependent STAT6 phosphorylation in BEAS-2B human bronchial epithelial cells
Assay Comment: JAK1 pathway assay: IL-13 stimulated STAT6 phosphorylation in BEAS-2B cells
Type: cell-based
Condition Info: Homo sapiens, BEAS-2B, BEAS-2B cells, IL-13 stimulation; read-out: IL-13 p-STAT6 BEAS-2B IC50
Readout Name: IC50 (nM)
The answer is to be given in nM; state only the numeric part.

Illustrative cases are given below, each with its answer.
Compound	Experimental Target	Value Units	IC50
CC[C@@H](O)Cn1cc(NC(=O)c2cnn3cccnc23)c(-c2cc3c(cc2OC(F)F)NCCO3)n1 [Example 121]	JAK1-dependent STAT6 phosphorylation in BEAS-2B human bronchial epithelial cells	nM	38
O=C(Nc1cn(C2CCOC2=O)nc1-c1cc2c(cc1OC(F)F)NCCS2)c1cnn2cccnc12 (single isomer, unassigned) [Example 141]	JAK1-dependent STAT6 phosphorylation in BEAS-2B human bronchial epithelial cells	nM	11
CC1CNc2cc(OC(F)F)c(-c3nn(CC(=O)N(C)C)cc3NC(=O)c3cnn4cccnc34)cc2S1 (single isomer, unassigned) [Example 105]	JAK1-dependent STAT6 phosphorylation in BEAS-2B human bronchial epithelial cells	nM	24
O=CN1CCN(C(=O)Cn2cc(NC(=O)c3cnn4cccnc34)c(-c3cc4ccccc4cc3OC(F)F)n2)CC1 [Example 68]	JAK1-dependent STAT6 phosphorylation in BEAS-2B human bronchial epithelial cells	nM	35
O=C(Nc1c[nH]nc1-c1cc2ccccc2cc1OC(F)F)c1cnn2cccnc12 [Example 1]	JAK1-dependent STAT6 phosphorylation in BEAS-2B human bronchial epithelial cells	nM	6

Query string: # lookup: IC50 of CNC(=O)Cn1cc(NC(=O)c2cnn3cccnc23)c(-c2cc3c(cc2OC(F)F)SCCO3)n1 [Example 119]
Result string: 40

Query string: # lookup: IC50 of Cn1nnc(Cn2cc(NC(=O)c3cnn4cccnc34)c(-c3cc4c(cc3OC(F)F)NCCO4)n2)n1 [Example 136]
Result string: 21

====

Experimental Target: isolated recombinant JAK2 kinase domain (Homo sapiens (Human), UniProt O60674)
Sequence (O60674 849-1124): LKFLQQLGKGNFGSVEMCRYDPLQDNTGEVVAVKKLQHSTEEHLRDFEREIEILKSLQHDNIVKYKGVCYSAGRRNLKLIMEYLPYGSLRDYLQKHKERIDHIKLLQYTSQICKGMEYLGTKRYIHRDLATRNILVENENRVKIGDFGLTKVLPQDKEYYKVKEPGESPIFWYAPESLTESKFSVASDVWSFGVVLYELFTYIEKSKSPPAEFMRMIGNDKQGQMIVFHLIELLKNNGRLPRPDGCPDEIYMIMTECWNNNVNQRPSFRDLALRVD
Assay Comment: JAK2 enzyme assay (Caliper LabChip, Ki)
Condition Info: read-out: JAK2 Ki
Ki by entry:
The answer is to be given in nM; state only the numeric part.

Compound	Readout Name	Value Units	Test Result
COc1cc2sc(C#N)cc2cc1-c1n[nH]cc1NC(=O)c1cnn2cccnc12 [Example 24]	Ki	nM	0.27
O=C(Nc1c[nH]nc1-c1cc2c(cc1OC(F)F)CCCO2)c1cnn2cccnc12 [Example 17]	Ki	nM	0.14
CN(C)CCn1cc(NC(=O)c2cnn3cccnc23)c(-c2cc3c(cc2OC(F)F)NC(=O)CS3)n1 [Example 83]	Ki	nM	0.14
CN(C)C(=O)Cn1cc(NC(=O)c2cnn3cccnc23)c(-c2cc3c(cc2OC(F)F)CCO3)n1 [Example 109]	Ki	nM	0.42
CNC(=O)Cn1cc(NC(=O)c2cnn3cccnc23)c(-c2cc3c(cc2OC(F)F)SCCO3)n1 [Example 119]	Ki	nM	1.93

Query string: # lookup: Ki of Cn1cc(NC(=O)c2cnn3cccnc23)c(-c2cc3c(cc2OC(F)F)NCC(C)(C)O3)n1 [Example 149]
Result string: 0.64

Query string: # lookup: Ki of CN(C)C(=O)Cn1cc(NC(=O)c2cnn3cccnc23)c(-c2cc3c(cc2OC(F)F)NCCO3)n1 [Example 100]
Result string: 0.34

Query string: # lookup: Ki of CN1CCC[C@@H]1Cn1cc(NC(=O)c2cnn3cccnc23)c(-c2cc3cn[nH]c3cc2OC(F)F)n1 [Example 77]
Result string: 0.43

Query string: # lookup: Ki of COC(=O)Cn1cc(NC(=O)c2cnn3cccnc23)c(-c2cc3sc(C#N)cc3cc2OC(F)F)n1 [Example 19]
Result string: 0.33

Query string: # lookup: Ki of C[C@@H]1CNc2cc(OC(F)F)c(-c3nn(CC(=O)N4CCC(CN5CCOCC5)CC4)cc3NC(=O)c3cnn4cccnc34)cc2S1 [Example 46]
Result string: 0.31

Query string: # lookup: Ki of O=C(Nc1c[nH]nc1-c1cc2c(cc1OC(F)F)SCCO2)c1cnn2cccnc12 [Example 151]
Result string: 0.25

Query string: # lookup: Ki of O=C(Nc1cn(CC(=O)N2CCCCC2)nc1-c1cc2c(cc1OC(F)F)NCCO2)c1cnn2cccnc12 [Example 6]
Result string: 0.31

Query string: # lookup: Ki of Cn1nnnc1Cn1cc(NC(=O)c2cnn3cccnc23)c(-c2cc3c(cc2OC(F)F)NCCO3)n1 [Example 135]
Result string: 0.14

Query string: # lookup: Ki of Cn1cc(NC(=O)c2cnn3cccnc23)c(-c2cc3c(cc2OC(F)F)NC2(COC2)CO3)n1 [Example 147]
Result string: 0.32

Query string: # lookup: Ki of CC1Sc2cc(-c3n[nH]cc3NC(=O)c3cnn4cccnc34)c(OC(F)F)cc2NC1=O (stereo not shown) [Example 39]
Result string: 0.05

Query string: # lookup: Ki of COc1cc2ccsc2cc1-c1n[nH]cc1NC(=O)c1cnn2cccnc12 [Example 35]
Result string: 0.11
